# TEST_NAME: Multiple-dose
# Assay type: in vivo, human
# TEST_SETTINGS: male, human, plasma, oral, 30 mg, Cmax, Mean (SD), Japanese, 30 mg bid, Day 1

SMILES: NC(=O)c1cnc2[nH]ccc2c1N[C@@H]1[C@@H]2CC3C[C@H]1C[C@@](O)(C3)C2
Cmax (ng/mL): 93.5

----------
# TEST_NAME: Multiple-dose
# Type: in vivo, human
# TEST_SETTINGS: male, human, plasma, oral, 10 mg

SMILES: NC(=O)c1cnc2[nH]ccc2c1N[C@@H]1[C@@H]2CC3C[C@H]1C[C@@](O)(C3)C2
UNIT_OF_MEASUREMENT: h
half-life: 6

----------
# TEST_NAME: Single-dose pharmacokinetics
# Type: in vivo, human
# TEST_SETTINGS: male, human, plasma, oral, median tmax, range, single-dose administration, both Japanese and Caucasian subjects
REPORTED_METRIC: Tmax

COMPOUND: NC(=O)c1cnc2[nH]ccc2c1N[C@@H]1[C@@H]2CC3C[C@H]1C[C@@](O)(C3)C2 [peficitinib, Peficitinib]
REPORTED: 1 to 2 h

----------
# TEST_NAME: Multiple-dose
# Format: in vivo, human
# TEST_SETTINGS: male, human, plasma, oral, 30 mg, AUC12, Mean (SD), Japanese, 30 mg bid, Day 7

MOLECULE: NC(=O)c1cnc2[nH]ccc2c1N[C@@H]1[C@@H]2CC3C[C@H]1C[C@@](O)(C3)C2 [peficitinib, Peficitinib]
UNIT_OF_MEASUREMENT: ng·h/mL
AUC: 444

----------
# TEST_NAME: Multiple-dose
# Format: in vivo, human
# TEST_SETTINGS: male, human, plasma, oral, 30 mg, Cmax, Mean (SD), Japanese, 30 mg bid, Day 7

SMILES: NC(=O)c1cnc2[nH]ccc2c1N[C@@H]1[C@@H]2CC3C[C@H]1C[C@@](O)(C3)C2
Cmax: 106 ng/mL

----------
# TEST_NAME: Multiple-dose
# Assay type: in vivo, human
# TEST_SETTINGS: male, human, plasma, oral, 100 mg, Cmax, Mean (SD), Japanese, 100 mg bid, Day 7

SMILES: NC(=O)c1cnc2[nH]ccc2c1N[C@@H]1[C@@H]2CC3C[C@H]1C[C@@](O)(C3)C2
Cmax [ng/mL]: 483

----------
# TEST_NAME: Multiple-dose
# Type: in vivo, human
# TEST_SETTINGS: male, human, plasma, oral, 100 mg, tmax, Median, Japanese, 100 mg bid, Day 1
REPORTED_METRIC: Tmax (h)

SMILES: NC(=O)c1cnc2[nH]ccc2c1N[C@@H]1[C@@H]2CC3C[C@H]1C[C@@](O)(C3)C2
REPORTED_METRIC: Tmax
REPORTED: 2

----------
# TEST_NAME: Multiple-dose
# Assay type: in vivo, human
# TEST_SETTINGS: male, human, plasma, oral, 100 mg, AUC12, Mean (SD), Japanese, 100 mg bid, Day 1
REPORTED_METRIC: AUC (ng·h/mL)

COMPOUND: NC(=O)c1cnc2[nH]ccc2c1N[C@@H]1[C@@H]2CC3C[C@H]1C[C@@](O)(C3)C2 [peficitinib, Peficitinib]
REPORTED_METRIC: AUC
REPORTED: 1340

----------
# TEST_NAME: Multiple-dose
# Format: in vivo, human
# TEST_SETTINGS: male, human, plasma, oral, 30 mg, tmax, Median, Japanese, 30 mg bid, Day 1

MOLECULE: NC(=O)c1cnc2[nH]ccc2c1N[C@@H]1[C@@H]2CC3C[C@H]1C[C@@](O)(C3)C2 [peficitinib, Peficitinib]
Tmax / h: 2

----------
# TEST_NAME: Multiple-dose
# Format: in vivo, human
# TEST_SETTINGS: male, human, plasma, oral, 10 mg, tmax, Median, Japanese, 10 mg bid, Day 1
REPORTED_METRIC: Tmax (h)

COMPOUND: NC(=O)c1cnc2[nH]ccc2c1N[C@@H]1[C@@H]2CC3C[C@H]1C[C@@](O)(C3)C2 [peficitinib, Peficitinib]
REPORTED_METRIC: Tmax
REPORTED: 1.5

----------
# TEST_NAME: Multiple-dose
# Format: in vivo, human
# TEST_SETTINGS: male, human, plasma, oral, 10 mg, Cmax, Mean (SD), Japanese, 10 mg bid, Day 7
REPORTED_METRIC: Cmax (ng/mL)

COMPOUND: NC(=O)c1cnc2[nH]ccc2c1N[C@@H]1[C@@H]2CC3C[C@H]1C[C@@](O)(C3)C2 [peficitinib, Peficitinib]
REPORTED: 36.4

----------
# TEST_NAME: Multiple-dose
# Assay type: in vivo, human
# TEST_SETTINGS: male, human, plasma, oral, 30 mg, AUC12, Mean (SD), Japanese, 30 mg bid, Day 1
REPORTED_METRIC: AUC (ng·h/mL)

SMILES: NC(=O)c1cnc2[nH]ccc2c1N[C@@H]1[C@@H]2CC3C[C@H]1C[C@@](O)(C3)C2
REPORTED: 354

----------
# TEST_NAME: Multiple-dose
# Format: in vivo, human
# TEST_SETTINGS: male, human, plasma, oral, 10 mg, AUC12, Mean (SD), Japanese, 10 mg bid, Day 7
REPORTED_METRIC: AUC (ng·h/mL)

SMILES: NC(=O)c1cnc2[nH]ccc2c1N[C@@H]1[C@@H]2CC3C[C@H]1C[C@@](O)(C3)C2
REPORTED: 145

----------
# TEST_NAME: Multiple-dose
# Assay type: in vivo, human
# TEST_SETTINGS: male, human, plasma, oral

COMPOUND: NC(=O)c1cnc2[nH]ccc2c1N[C@@H]1[C@@H]2CC3C[C@H]1C[C@@](O)(C3)C2 [peficitinib, Peficitinib]
half-life at 7 day: 6 to 7.4 h

----------
# TEST_NAME: Multiple-dose
# Assay type: in vivo, human
# TEST_SETTINGS: male, human, plasma, oral, 100 mg, tmax, Median, Japanese, 100 mg bid, Day 7

COMPOUND: NC(=O)c1cnc2[nH]ccc2c1N[C@@H]1[C@@H]2CC3C[C@H]1C[C@@](O)(C3)C2 [peficitinib, Peficitinib]
UNIT_OF_MEASUREMENT: h
Tmax: 2
